Field: cytotoxicity at 10 µM. Provide a value for each of the molecules that follow.
- assay: Toxicity liver stage against HepG2, at 10uM
- Type: cell-based
- Design: test concentration 10 uM, cell line HepG2-A16-CD81EGFP
- conditions used: human, HepG2-A16-CD81EGFP cells; read-out: INHIBITION

Specify reported cytotoxicity at 10 µM for the molecule shown: CC(C(=O)Nc1ccnn1C(C)C)N1CCCN(c2nccs2)CC1 (stereo unspecified)
-9.39%

Specify reported cytotoxicity at 10 µM for the molecule shown: CNC(=O)[C@@]12CCCN(c3ncccn3)[C@@H]1CN(C)C2
12.8%

Specify reported cytotoxicity at 10 µM for the molecule shown: CC(C)(C)OC(=O)NCCNC(=O)c1ccc2cc[nH]c2c1
-0.224%

Specify reported cytotoxicity at 10 µM for the molecule shown: O=C(c1ccncc1)N1CCC2(CC1)CCN(Cc1ccccn1)C2=O
-3.18%

Specify reported cytotoxicity at 10 µM for the molecule shown: NCC1CCCN(c2nc(-c3ccccc3)nc3c2CCNCC3)C1 (stereo unspecified)
-10.3%

Specify reported cytotoxicity at 10 µM for the molecule shown: COCCNC(=O)NCc1ccc(-n2ccc(C(F)(F)F)n2)cc1
-7.29%

Specify reported cytotoxicity at 10 µM for the molecule shown: CC(C)=CCN1C[C@@H]2CC[C@H]1CN(Cc1coc(C)n1)C2
1.25%

Specify reported cytotoxicity at 10 µM for the molecule shown: CC1COC2(CCN(C(=O)c3ncoc3C(C)C)CC2)O1 (stereo unspecified)
1.15%

Specify reported cytotoxicity at 10 µM for the molecule shown: Cc1nc(CNC(=O)Nc2cc(F)ccc2N2CCN(C)CC2)no1
-8.8%

Specify reported cytotoxicity at 10 µM for the molecule shown: Cc1ccccc1-n1cc(CNC(=O)CC2C(=O)NCCN2C)cn1 (stereo unspecified)
2.4%

Specify reported cytotoxicity at 10 µM for the molecule shown: CC(C)(C)[S+]([O-])CCNC(=O)c1cccc2ncccc12 (stereo unspecified)
-45.1%
